test system: LXRb homodimer (NR concentration 270 nM); assay: PBM binding z-score (relative to random genomic background probes); higher = stronger binding; sequences stand for … in GC…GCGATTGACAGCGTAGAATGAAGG
metric: PBM binding z-score
The response must contain the number and no unit.

Observe how each entry below is paired with its result.
Which PBM binding z-score value belongs to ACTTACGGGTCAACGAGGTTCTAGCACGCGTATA ?
0.336

Using the record for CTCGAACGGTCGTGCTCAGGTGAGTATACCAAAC , report its PBM binding z-score.
-0.517

I have this sequence here, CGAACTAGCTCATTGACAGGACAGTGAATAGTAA , and I need its recorded PBM binding z-score.
-0.335

Reported PBM binding z-score, sequence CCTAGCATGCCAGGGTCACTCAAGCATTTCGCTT : ____
-0.94

Could you tell me which PBM binding z-score is on file for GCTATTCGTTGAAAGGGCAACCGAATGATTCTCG ?
-0.0285

Others:
Query: PBM binding z-score; subject: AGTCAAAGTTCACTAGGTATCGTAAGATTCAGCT
1.09

Item under review: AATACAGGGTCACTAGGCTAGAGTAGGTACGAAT . Reported PBM binding z-score?
0.775

Any idea what PBM binding z-score was measured for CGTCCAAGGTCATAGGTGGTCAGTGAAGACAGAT ?
0.409

Look at this sequence and give its reported PBM binding z-score. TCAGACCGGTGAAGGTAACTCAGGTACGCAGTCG
-0.714

Which PBM binding z-score reading was recorded for the sequence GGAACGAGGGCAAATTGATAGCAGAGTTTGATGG ?
-0.144

Entry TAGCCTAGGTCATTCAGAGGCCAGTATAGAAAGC has what PBM binding z-score?
0.598

Given the sequence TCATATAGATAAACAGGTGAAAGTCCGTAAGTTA , what is its reported PBM binding z-score?
0.473

So what's the measured PBM binding z-score for this one? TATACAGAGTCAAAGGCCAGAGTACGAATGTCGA
0.0425

Form field: reported PBM binding z-score of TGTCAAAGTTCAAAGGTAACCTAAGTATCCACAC
2.06

* * *

tested on: RARb:RXRa (NR concentration 270 nM, RXRa partner concentration 90 nM); experiment: PBM binding z-score (relative to random genomic background probes); higher = stronger binding; sequences stand for … in GC…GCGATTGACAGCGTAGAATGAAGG
metric: PBM binding z-score
Reply briefly: the number, and no unit.

Sample records with PBM binding z-score:
Which PBM binding z-score is reported for this sequence? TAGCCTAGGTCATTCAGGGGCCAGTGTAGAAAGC
3.96

Data request, read-out PBM binding z-score, for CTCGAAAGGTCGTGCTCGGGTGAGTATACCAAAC
3.98

// query PBM binding z-score value for entry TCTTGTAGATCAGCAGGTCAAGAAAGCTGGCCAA
2.01

Give the measured PBM binding z-score of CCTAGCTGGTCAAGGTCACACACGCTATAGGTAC .
3.99

What does the data say about its PBM binding z-score? Entry: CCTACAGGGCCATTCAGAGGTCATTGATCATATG
3.47

Look at this sequence and give its reported PBM binding z-score. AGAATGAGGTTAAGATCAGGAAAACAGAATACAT
1.9

Would you mind telling me what PBM binding z-score value was observed for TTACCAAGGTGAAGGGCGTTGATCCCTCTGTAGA ?
1.64

For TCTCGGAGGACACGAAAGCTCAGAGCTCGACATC , what is its reported PBM binding z-score?
1.31

Item under review: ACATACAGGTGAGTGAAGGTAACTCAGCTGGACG . Reported PBM binding z-score?
0.763

What value of PBM binding z-score has been recorded for this entry: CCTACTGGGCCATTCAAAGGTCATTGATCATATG
3.72

---
Param item = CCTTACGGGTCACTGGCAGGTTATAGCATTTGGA ; retrieve measured PBM binding z-score.
3.99

Requested field: PBM binding z-score. Item: GCTTGTAGATCAATGTTAAGAAAGACTAAGCTAA
-0.399

Reported PBM binding z-score for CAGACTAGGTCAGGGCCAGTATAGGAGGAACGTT : what is it?
3.12

Would you mind telling me what PBM binding z-score value was observed for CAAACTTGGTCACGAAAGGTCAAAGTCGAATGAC ?
4.68

* * *

system: PPARg DBDmut IVT, anti-PPARg (DBD mutation: PPARg1 K132A/R137A, NR concentration 270 nM); experiment: PBM binding z-score (relative to random genomic background probes); higher = stronger binding; sequences stand for … in GC…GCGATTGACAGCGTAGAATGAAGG
metric: PBM binding z-score
Returns: the value as a bare number; no unit string appended.

Consider the following illustrative entries.
Query: PBM binding z-score; subject: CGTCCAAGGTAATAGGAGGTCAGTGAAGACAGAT
-0.16

Request the reported PBM binding z-score associated with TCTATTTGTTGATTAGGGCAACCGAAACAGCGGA
1.99

Could you share which PBM binding z-score value was measured for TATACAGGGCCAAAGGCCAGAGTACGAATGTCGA ?
-0.0589

New cases:
Looking for the measured PBM binding z-score of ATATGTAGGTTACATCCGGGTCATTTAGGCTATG , can you help?
3.77

Find the recorded PBM binding z-score belonging to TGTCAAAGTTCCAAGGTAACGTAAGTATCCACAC and report it.
0.288

Which PBM binding z-score value belongs to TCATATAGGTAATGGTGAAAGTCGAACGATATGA ?
1.7

Entry under review: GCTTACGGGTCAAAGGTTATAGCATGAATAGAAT . Reported PBM binding z-score?
0.991

Entry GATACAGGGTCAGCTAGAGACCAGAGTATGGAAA has what PBM binding z-score?
-0.539

I would be grateful if you could share the reported PBM binding z-score for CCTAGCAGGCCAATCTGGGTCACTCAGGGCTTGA .
-1.07

What measured PBM binding z-score goes with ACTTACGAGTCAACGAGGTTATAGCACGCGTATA ?
0.64

Field request: PBM binding z-score | item: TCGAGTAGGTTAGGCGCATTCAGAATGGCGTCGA
-1.21

Looking for the measured PBM binding z-score of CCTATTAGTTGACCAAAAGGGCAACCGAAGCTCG , can you help?
1.05

I am curious: what PBM binding z-score value has been reported for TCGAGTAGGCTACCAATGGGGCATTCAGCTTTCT ?
-1.72

What value of measured PBM binding z-score is listed for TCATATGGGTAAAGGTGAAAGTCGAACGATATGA ?
0.532

# input sequence: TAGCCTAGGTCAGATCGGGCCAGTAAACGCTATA ; wanted: its PBM binding z-score
-0.294

Give the measured PBM binding z-score of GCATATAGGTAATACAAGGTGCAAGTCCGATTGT .
0.109

Reported PBM binding z-score, sequence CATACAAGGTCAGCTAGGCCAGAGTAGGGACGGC : ____
1.12

Quick one: PBM binding z-score for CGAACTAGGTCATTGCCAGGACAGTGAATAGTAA ?
0.503

Recorded PBM binding z-score of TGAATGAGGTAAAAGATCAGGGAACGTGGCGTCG , please.
-0.202

Given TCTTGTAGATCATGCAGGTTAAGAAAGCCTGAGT , state its recorded PBM binding z-score.
1.07

// PBM binding z-score lookup, key: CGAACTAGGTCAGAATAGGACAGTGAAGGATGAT
1.87

* * *

PBM binding z-score overview
test system: THRa:RXRa (NR concentration 90 nM, RXRa partner concentration 90 nM); test: PBM binding z-score (relative to random genomic background probes); higher = stronger binding; sequences stand for … in GC…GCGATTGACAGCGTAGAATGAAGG

# query: PBM binding z-score of entry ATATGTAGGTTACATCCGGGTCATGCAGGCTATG
4

Any idea what its PBM binding z-score is? The sequence is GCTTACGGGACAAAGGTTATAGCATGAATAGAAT
1.55

Look up PBM binding z-score: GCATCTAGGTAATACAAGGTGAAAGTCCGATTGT
3.63

* * *

system: FXR:RXRa (NR concentration 270 nM, RXRa partner concentration 90 nM); experiment: PBM binding z-score (relative to random genomic background probes); higher = stronger binding; sequences stand for … in GC…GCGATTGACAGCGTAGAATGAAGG
metric: PBM binding z-score

// known answers, use as guide
PBM binding z-score lookup needed for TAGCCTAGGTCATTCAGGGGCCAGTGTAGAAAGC , thanks.
4.78

// PBM binding z-score lookup, key: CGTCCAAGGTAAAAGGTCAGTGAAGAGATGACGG
3.59

Record request: PBM binding z-score value, item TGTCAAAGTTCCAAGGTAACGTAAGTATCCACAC
0.32

Data request, read-out PBM binding z-score, for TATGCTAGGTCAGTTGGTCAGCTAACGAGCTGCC
0.676

For the sequence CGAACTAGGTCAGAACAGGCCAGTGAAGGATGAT , what PBM binding z-score is on record?
1.1

Others:
Which PBM binding z-score is reported for this sequence? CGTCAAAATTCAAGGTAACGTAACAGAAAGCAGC
0.068

Any idea what its PBM binding z-score is? The sequence is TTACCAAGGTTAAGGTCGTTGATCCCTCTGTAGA
4.22

GET /values?readout=PBM binding z-score&item= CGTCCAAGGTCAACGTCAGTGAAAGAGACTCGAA
7.13

What does the data say about its PBM binding z-score? Entry: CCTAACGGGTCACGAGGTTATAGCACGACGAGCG
6.1

Item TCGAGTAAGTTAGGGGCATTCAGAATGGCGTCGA has what recorded PBM binding z-score?
0.474
